Origin of the recorded values: PubChem BioAssay (NCI)

test system: HOP-92 NSCLC; assay: NCI tumour cell line growth inhibition, 48 h; in the data active means GI50 below about 0.43 µM; inactive means the rest
Labels: active, inactive

INSERT INTO assay_data (structure_smiles, experimental_target, class_assignment) VALUES
  ('Cc1cccc(Oc2ccc(Nc3ncnc4ccc(NC(=O)CN(C)C)cc34)cc2Cl)c1', 'HOP-92 NSCLC', 'inactive'),
  ('O=C(CCN1CCOCC1)Nc1ccc(Cn2nnc3c2C(=O)c2nnn(Cc4ccc(NC(=O)CCN5CCOCC5)cc4)c2C3=O)cc1', 'HOP-92 NSCLC', 'inactive'),
  ('O=[N+]([O-])c1ccc(N/N=C\c2cc(Br)ccc2O)nc1', 'HOP-92 NSCLC', 'inactive'),
  ('CCCCCCCCCCN=C(N)c1ccc(N2CCN(c3ccc(C(N)=NCCCCCCCCCC)cc3)CC2)cc1', 'HOP-92 NSCLC', 'inactive'),
  ('O=C(O)c1cn(C2CC2)c2cc(N3CCN(C(=O)N(c4ccccc4)c4nc(-c5ccccc5)cs4)CC3)c(F)cc2c1=O', 'HOP-92 NSCLC', 'active'),
  ('CNCc1cccc2c1OCCOCCOCCNS(=O)(=O)c1ccc(cc1)-c1cnc(N)c(n1)C(=O)N2', 'HOP-92 NSCLC', 'inactive');

* * *

tested on: HOP-62 NSCLC; experiment: NCI tumour cell line growth inhibition, 48 h
Quick reference: GI50 of the listed items.
READOUT KIND: GI50

INSERT INTO measurements (structure_smiles, experimental_target, readout_kind, result) VALUES
  ('CN(c1ccccc1)c1c2ccccc2nc2[nH]c3ccccc3c12', 'HOP-62 NSCLC', 'GI50', '1.96 µM'),
  ('CNCc1cccc2c1OCCOCCOCCNS(=O)(=O)c1ccc(cc1)-c1cnc(N)c(n1)C(=O)N2', 'HOP-62 NSCLC', 'GI50', '1.27 µM'),
  ('CCCCCCCCCCN=C(N)c1ccc(N2CCN(c3ccc(C(N)=NCCCCCCCCCC)cc3)CC2)cc1', 'HOP-62 NSCLC', 'GI50', '11.3 µM'),
  ('CCOC(=O)c1c(Cl)c2c(n1Cc1ccccc1)-c1oncc1CCC2', 'HOP-62 NSCLC', 'GI50', '4.35 µM'),
  ('COc1cc2c3c(n(CCCN)c(=O)c2cc1OC)-c1ccc(N)cc1C3=O', 'HOP-62 NSCLC', 'GI50', '1.55 µM'),
  ('FC(F)(F)c1cccc(CNC2CCN(CCc3ccccc3)CC2)c1', 'HOP-62 NSCLC', 'GI50', '37.5 µM');

* * *

system: HOP-92 NSCLC; assay: NCI tumour cell line growth inhibition, 48 h
READOUT KIND: TGI (µM)

INSERT INTO results (molecule, uom, modifier_sign, measured_number) VALUES
  ('CCCCCCCCCCCCOC1C(C(COC2OC(C(O)CO)C3OC(C)(C)OC23)OC(=O)Nc2ccccc2)OC2OC(C)(C)OC21 (stereo not given)', 'µM', '=', 20.1),
  ('CC1=N/C(=C\c2ccc(C)cc2)C(=O)O1', 'µM', '>', 100),
  ('CC(=O)NC(CCCNC(=O)OCc1ccccc1)C(=O)NCc1ccccc1 (stereo not given)', 'µM', '>', 100),
  ('O=c1c(-c2ccccc2)c(SCCCN2CCCCC2)n(-c2ccccc2)c(=S)n1-c1ccccc1', 'µM', '=', 30.1),
  ('C=CCN(c1cc(O)c2c(c(C)cn2S(=O)(=O)c2ccccc2)c1[N+](=O)[O-])S(C)(=O)=O', 'µM', '>', 100);
